System: c-Abl (mouse);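 also: 11-residue human phosphosite peptides and single-mutation variants displayed on the E. coli surface, counted by deep sequencing, each peptide's frequency after selection divided by its frequency in the unselected input library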;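 also: frequency after pTyr selection over input frequency; kinase dosed for 20-30% of maximal phosphorylation in three min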
Assay: phosphorylation enrichment, bacterial display (enrichment ratio); higher = better substrate or ligand; peptides without Tyr show the background
If the reported phosphorylation enrichment equals or exceeds 0.7, assign 1. If not, assign -1.

In [3]: df
Out[3]:
                     primary_sequence  cat
 0   FPQARYHWLVL [APTX_Y214_K211Q_YF]    1
 1         ATQDDYVLEVR [PTPRZ1_Y2179]    1
 2       ATPKGYERDAS [OTC_Y223_P225R]   -1
 3        LTGIAYSLPHW [SLC22A14_Y291]    1
 4  QKLPLYILENN [VPS13B_Y2774_S2773L]    1
 5     AACQHYGVHTC [NR4A2_Y275_R278H]   -1
 6   LLREWYVQDPF [SIX3_Y225_L226V_YF]   -1
 7        EGDGVYTLNNK [HP_Y125_E130K]   -1
 8     FSVDSYDSSVR [KCNQ1_Y461_G460S]   -1
 9     RLLRGYDQFAY [HLA-C_Y137_S140F]    1
10         SSFSGYIMMPN [LEF1_Y114_YF]   -1
11     IDDNQYAYLKA [HNF4A_Y286_E285Q]    1
